biological target: LTA4 hydrolase peptidase activity (Homo sapiens (Human))
Sequence (P09960 whole entry): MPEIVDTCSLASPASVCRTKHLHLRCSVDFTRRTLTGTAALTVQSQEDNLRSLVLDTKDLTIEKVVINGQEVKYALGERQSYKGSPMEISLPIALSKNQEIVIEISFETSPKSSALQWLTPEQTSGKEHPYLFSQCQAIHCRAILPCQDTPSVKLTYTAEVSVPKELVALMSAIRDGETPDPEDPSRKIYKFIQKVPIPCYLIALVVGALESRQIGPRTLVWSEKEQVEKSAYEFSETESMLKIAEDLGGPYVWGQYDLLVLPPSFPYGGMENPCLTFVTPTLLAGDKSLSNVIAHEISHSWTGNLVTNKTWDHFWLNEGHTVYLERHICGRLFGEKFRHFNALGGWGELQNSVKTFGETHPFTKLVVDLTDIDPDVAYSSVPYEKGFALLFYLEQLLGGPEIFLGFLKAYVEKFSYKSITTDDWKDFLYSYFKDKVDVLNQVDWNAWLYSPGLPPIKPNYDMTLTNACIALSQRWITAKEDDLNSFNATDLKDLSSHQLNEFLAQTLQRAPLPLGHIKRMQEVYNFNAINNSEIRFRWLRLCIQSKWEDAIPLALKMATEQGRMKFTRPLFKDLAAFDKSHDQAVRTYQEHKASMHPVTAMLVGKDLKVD
pIC50: −log10 of the molar value.
MEASURED_METRIC: pIC50

>>> experimental_value("O=C(O)c1ccc(CN2CCCC(CNc3ccc(Oc4ccc(Cl)cc4)cc3)C2)cc1 (stereo not shown)")
7.66
